Where these numbers come from: the supplement of paper PMC9170038

System: MS2 coat protein
Assay: apparent KD of MS2 coat protein; designed switch direction (-1 OFF switch, 1 ON switch): -1; higher = weaker reporter binding
Settings: Eterna round: R95; input ligand: microRNA oligo, concentration not stated

- Sequence Entry: "GAUUAUGCGAGCUUUAGGGACAUGAGGAUCACCCAUGUUCGUCUUAUUAGUCUAAAUGCACUGACAUACCUAAAUCU [JMF 73] (puzzle: Sensor v3, turn-off variant 1)"
  apparent KD of MS2 coat protein / µM: 0.0153
- Sequence Entry: "UUGCUUUCUUAGUACUCUAUAAGUUUUUUGUUCGUUUUAACAUGAGGAUCACCCAUGUCUAGUGGAUCUGAUCGGGU [JL ViennaUCT Isreen mod 7] (puzzle: Sensor v3, turn-off variant 2)"
  apparent KD of MS2 coat protein / µM: 0.303
- Sequence Entry: "AAAAAACAAGGAUAUACAAAAAAAAAAUGUGUUAAAUUUUCACAUGAGGAUCACCCAUGUAGAAGGUGUAAAAA [JR_Exclusion2_Sub005] (puzzle: Exclusion 2)"
  apparent KD of MS2 coat protein / µM: 0.0491
- Sequence Entry: "GAAAAGGUAGGAUAUACGAAAAAAUAGGGUAGAAAAAAAACACAUGAGGAUCACCCAUGUAGAAGGACCAAAAG [salish99_ex2_r3_081] (puzzle: Exclusion 2)"
  apparent KD of MS2 coat protein / µM: 0.0337
- Sequence Entry: "CUCAGACAUGAGGAUCACCCAUGUGAGGAUAUGAUGCGAUCGUCGAAAGACGAUAGCAUCAGAAGGCACAAAUG [Fiskers Ex 1 - 24] (puzzle: Exclusion 1)"
  apparent KD of MS2 coat protein / µM: 0.0712

###

Test system: MS2 coat protein
Assay: apparent KD of MS2 coat protein, switch ON state; designed switch direction (-1 OFF switch, 1 ON switch): 1; higher = weaker reporter binding
Conditions: FMN input: 0 or 200 uM; Eterna round: R93 (includes R88 designs)
Assign class by apparent KD of MS2 coat protein: not lower than 30 nM means Fulfilled; lower than 30 nM means Not fulfilled.

- Sequence Entry: "AGAGAUAACAGAGAGGAUAUCCAAUAGAAAACAUGAGGAUCACCCAUGUGAAAGAUAAUAAAAUGGGAGAAGGCUCACAAUAAGA [Topaz 42]"
  Label: "Not fulfilled"
- Sequence Entry: "AAAAAAAAUGUGUAGGAUAUCAGUAAAAAUACAUGAGGAUCACCCAUGUUCAAAAAAAAAAAAACUGAGAAGGACGUGGAUGGUCC [Design 3]"
  Label: "Not fulfilled"
- Sequence Entry: "CUGGACAUAGUACAGGAUAUAUGAAUAGUCACAUGAGGAUCACCCAUGUGCAUUUAUAUGCGCACAUAGAAGGGUGGUAGUUAAG [Mat - Same state - Malcolm Mod - D140]"
  Label: "Fulfilled"
- Sequence Entry: "AAAAAACAUGAGGAUCACCCAUGUAAAAAAAACACAGGAUAUCCCUUUUUUAAAUGGGAGGGAGAAGGGUGAAAAA [Nob's Hobby 12 - Jieux - Same State 1]"
  Label: "Not fulfilled"
- Sequence Entry: "GAAAAACAUGAGGAUCACCCAUGUAGAAAUAUGGGAGGAUAUACGAACUCGAAAGUCAAAGUAGAAGGCCUAAAAG [Garnet 30]"
  Label: "Fulfilled"
- Sequence Entry: "ACAAACAAAAAAGAGGAUAUCCUAAAUAAAACAUGAGGAUCACCCAUGUAAAAAAUAAUAAAAUGGGAGAAGGCUUACAACAAAC [SS2 M 24]"
  Label: "Not fulfilled"
- Sequence Entry: "AAUAUAUUAAGUGAGGAUAUCGAAGAAAAAACAUGAGGAUCACCCAUGUGGGAAACCUGGUCGGGUGAGAAGGCACUUAAUAUAU [Samwise Clockwise 27 - Jieux - Same State 2]"
  Label: "Fulfilled"
- Sequence Entry: "ACAAAGCUACACUAGGAUAUGGGUGUCUAAACAUGAGGAUCACCCAUGUGAUGGCAAAACAAAGCUCAGAAGGAGUCGUAGCCCA [Bientevece]"
  Label: "Not fulfilled"
- Sequence Entry: "GUUGAACAUGAGGAUCACCCAUGUCUCAACAGUCAAGGAUAUGGGUCAUGCAGAUGAAUACCAGAAGGUGAAUAAA [Zaorxe]"
  Label: "Not fulfilled"
- Sequence Entry: "AAUCCAACUAGUCAGGAUAUCAGGCGUAAGACAUGAGGAUCACCCAUGUCCUAAGAACAAGUAACUGAGAAGGGACAGGGCGACC [JR_SS002_Sub411]"
  Label: "Fulfilled"
- Sequence Entry: "CAGAAGGAGAGAGAGGAUAUCCAAAGGAAAACAUGAGGAUCACCCAUGUAAAAGGUAGGAAAUUGGGAGAAGGCUCAAGAGAGAG [salish99-ss2-110]"
  Label: "Fulfilled"
- Sequence Entry: "AAAAAACAUGAGGAUCACCCAUGUCGAAAGACGUGAGGAUAUGUACAGACUUCGGUCUGUACAGAAGGCACGUAAA [SS1 - 1040]"
  Label: "Not fulfilled"
- Sequence Entry: "GAAAAACAUGAGGAUCACCCAUGUAAAAAAAUGGGAGGAUAUACAAAGACGAAAGUCAAAGUAGAAGGCCUGAAAG [same state 2]"
  Label: "Not fulfilled"
- Sequence Entry: "GAAAAACAUGAGGAUCACCCAUGUAGAAAUAUGGGAGGAUAUACAAUGACGAAAGUCAAUGUAGAAGGCCUGAUAG [JL S1 M-MoE mod 4]"
  Label: "Not fulfilled"
- Sequence Entry: "AAAAGACAUGAGGAUCACCCAUGUAAAAACGUAGGAGGAUAUGUAUGGAAACCAGACUGUACAGAAGGCCUCUGUC [SS1 - 72]"
  Label: "Not fulfilled"
- Sequence Entry: "AAGAAACAUGAGGAUCACCCAUGUAAACUCGAGAGAGGAUAUCGUACAUGGAAGAUUCAACGAGAAGGCUCUAGAG [Same State 1.1a (Pariah 3, G boost at 31, GC 76/28)]"
  Label: "Not fulfilled"
- Sequence Entry: "AACAAUCUAUCUGAGGAUAUGUGUCGAAAGACAUGAGGAUCACCCAUGUGAAAACAUGAAAAAUCACAGAAGGCAGAUAGAUUGA [SS2: 1143]"
  Label: "Fulfilled"
- Sequence Entry: "AAGAAACAUGAGGAUCACCCAUGUAAGAAUAUGGGAGGAUAUACAAGGACAAGAGUCAAGGUAGAAGGCCUAAGAA [Mat - Same State 1 - Meechl mod - D143]"
  Label: "Fulfilled"
- Sequence Entry: "AAUAUACAUGAGGAUCACCCAUGUUUUAAUAGUUGAGGAUAUACGGGUGAAAAUAGCAUAGUAGAAGGCGAGUGUA [SameState1 Malc#12]"
  Label: "Fulfilled"
- Sequence Entry: "AGGAAGGAGAGAGAGGAUAUCCAAAGGAAAACAUGAGGAUCACCCAUGUAGAAGGUAGGAAAUUGGGAGAAGGCUCAAGAGACAG [salish99-ss2-126]"
  Label: "Not fulfilled"
- Sequence Entry: "AUAUGAGCUAAUGAGGAUAUCCAUAAUAAGACAUGAGGAUCACCCAUGUAAACAAAACAAUAAUGGGAGAAGGCAUUAGCUCAAU [SS 2 M49]"
  Label: "Fulfilled"
- Sequence Entry: "GAGGACAUAGUUCAGGAUAUAUGAAUAGUCACAUGAGGAUCACCCAUGUCCAUUUAUAUGGGCACAUAGAAGGGAGGUAGUUAUC [SameState2 Malc#26]"
  Label: "Fulfilled"
- Sequence Entry: "AGUCAACAUGAGGAUCACCCAUGUCUGAGAGCAUGAGGAUAUCUAGAUGGGCAGCAUGAUAGAGAAGGCAUGCGCC [Biongear]"
  Label: "Fulfilled"

###

sequences and their reported apparent KD of MS2 coat protein
Tested on: MS2 coat protein
Experiment: apparent KD of MS2 coat protein; designed switch direction (-1 OFF switch, 1 ON switch): 1; higher = weaker reporter binding
Settings: input ligand: none
Observable: apparent KD of MS2 coat protein (nM)

- Sequence Entry: "AGCACUUCAGAAGGAUAUGAGAUGCUAAGCAUCUUAGAAGGUCUGCCGUAAAGAAACGUCCACAUGAGGAUCACCCAUGUUGCA [Eternabot solution 28] (Eterna round: R96, puzzle: Same State NG 1)"
  System: "MS2 coat protein"
  Observable: "apparent KD of MS2 coat protein"
  Value Measured: 26
- Sequence Entry: "UAUUAAUCUGUAGGAUAUCUAGGAUAUGGACGAGGAUCACCCGAGCAGCAUCAGCGCACCAGAGGAGAGAAGGACGCUUUGGUG [pwkr ssNG2 2F5 2FMN.2] (Eterna round: R96, puzzle: Same State NG 2)"
  System: "MS2 coat protein"
  Observable: "apparent KD of MS2 coat protein"
  Value Measured: 367
- Sequence Entry: "GGACGUCAACUCAACAAUUAAACAUGAGGAUCACCCAUGUCACAGGAUAUGGAUCCUAAUUGGAUCCAGAAGGGUGAGACGUCC [Fiskers NG3ss - 42] (Eterna round: R96, puzzle: Same State NG 3)"
  System: "MS2 coat protein"
  Observable: "apparent KD of MS2 coat protein"
  Value Measured: 79.2
- Sequence Entry: "GCGAAGAGGUAAGGAUAUGCAUGGCGGAGACAUGAGGAUCACCCAUGUUGGAGACGAAAUCUAGGGUAGAAGGUACCGGGAAGC [ssng2 v2 b] (Eterna round: R96, puzzle: Same State NG 2)"
  System: "MS2 coat protein"
  Observable: "apparent KD of MS2 coat protein"
  Value Measured: 110
- Sequence Entry: "ACAUGAGAUUGAGGAUAUAUUGUACCUACAUGUGACAUGAGGAUCACCCAUGUGGUAAGUAUGACAUAGAAGGCAGAGAUAUGU [Equivalance 84 - Jieux - Same State NG 2] (Eterna round: R96, puzzle: Same State NG 2)"
  System: "MS2 coat protein"
  Observable: "apparent KD of MS2 coat protein"
  Value Measured: 75.3
- Sequence Entry: "AUACCAUCGGGAGGAUAUGGCACCUUAUUGGUGCCAGAAGGUCUAACAUGAGGAUCACCCAUGUGGGAGUGGUCUAAUGACCAC [Eli NG1ss - 87] (Eterna round: R96, puzzle: Same State NG 1)"
  System: "MS2 coat protein"
  Observable: "apparent KD of MS2 coat protein"
  Value Measured: 186
- Sequence Entry: "GCUACAUGAGGAUCACCCAUGUGUGCGUGGGAGUGAGUGGCUUAGGAUAUCUAUGACUUGAGUUGAGAGAAGGAGGAUUGCUGU [SS-NG3-LRO12] (Eterna round: R96, puzzle: Same State NG 3)"
  System: "MS2 coat protein"
  Observable: "apparent KD of MS2 coat protein"
  Value Measured: 118
- Sequence Entry: "GCCAUCGAAUGAGGAUAUGGCACCGUUUCGGUGCCAGAAGGCAUGUCAAUUGACAUGAGGAUCACCCAUGUAUUAUCGAUGGCA [JL Fiskers NG1ss - 33 mod 5] (Eterna round: R96, puzzle: Same State NG 1)"
  System: "MS2 coat protein"
  Observable: "apparent KD of MS2 coat protein"
  Value Measured: 1640
- Sequence Entry: "GCGGAACCUGACAUGAGGAUCACCCAUGUUCCGGAAACGGCACAGGAUAUCUGUCCGAAAAGGUCAGAGAAGGGUGUAAACCGC [Fiskers NG3ss - 97] (Eterna round: R96, puzzle: Same State NG 3)"
  System: "MS2 coat protein"
  Observable: "apparent KD of MS2 coat protein"
  Value Measured: 210
- Sequence Entry: "CACAUGAGGAUCACCCAUGUGAGGCGGCAAUAAAACCGCGCACAGGAUAUAGCGCUAAGAAUGCGCUAGAAGGGUGAUUAGAAC [Esenla] (Eterna round: R96, puzzle: Same State NG 3)"
  System: "MS2 coat protein"
  Observable: "apparent KD of MS2 coat protein"
  Value Measured: 39.2
- Sequence Entry: "AUAGUUUCCGAAGGAUAUGAUGAGGAUCACCCAUCAGAAGGUUGGCUAUUGGGUGGACAUGAGGAUCACCCAUGUCUUUCUGUU (Eterna round: R96, puzzle: Same State NG 1)"
  System: "MS2 coat protein"
  Observable: "apparent KD of MS2 coat protein"
  Value Measured: 53.6
- Sequence Entry: "GCGGAACAGGCCGACAUGAGGAUCACCCAUGUGGCCUCAUGUCAGGAUAUCGGGAAGAAGAAAACCGAGAAGGGACGGUGACGC [AK SSNG3-V2-33.2] (Eterna round: R96, puzzle: Same State NG 3)"
  System: "MS2 coat protein"
  Observable: "apparent KD of MS2 coat protein"
  Value Measured: 10.1
- Sequence Entry: "ACGUGGACGAAAGUCCACGAAUAAGACGAACAUGAGGAUCACCCAUGUGAGGCGAGCUUUUUGUUCGUCUUAUAAAA [Mat - Sensor - Mod - D116] (Eterna round: R96, puzzle: Sensor for hsa-mir-208a)"
  System: "MS2 coat protein"
  Observable: "apparent KD of MS2 coat protein"
  Value Measured: 22.6
- Sequence Entry: "ACAUGAGAACGAGGAUAUUUUGUACCUACAUGUGACAUGAGGAUCACCCAUGUGGUAAGUAUGAGAAAGAAGGCGUAGAUAUGU [Equivalence 14 - Jieux - Same State NG 2] (Eterna round: R96, puzzle: Same State NG 2)"
  System: "MS2 coat protein"
  Observable: "apparent KD of MS2 coat protein"
  Value Measured: 29
- Sequence Entry: "UGGCUCAGACGAGGAUAUGGUCAUGGCGCUUCGGCGCAUACAUGAGGAUCACCCAUGUAGGGUGAUCAGAAGGCGUCUGAGCCA [SSNG2/9-A2] (Eterna round: R96, puzzle: Same State NG 2)"
  System: "MS2 coat protein"
  Observable: "apparent KD of MS2 coat protein"
  Value Measured: 715
- Sequence Entry: "GUGGAGGGUUGAGGAUAUUGGUUGCAUAUGUUUAACAUGAGGAUCACCCAUGUGGGUUGCGGUUUCGAGAAGGUAGGUUGCUGG [salish99_SSNG2_r04_043] (Eterna round: R96, puzzle: Same State NG 2)"
  System: "MS2 coat protein"
  Observable: "apparent KD of MS2 coat protein"
  Value Measured: 75.2
- Sequence Entry: "AUUGCUAGCACAGGAUAUCAUGCGAAAAUUGCGUGAGAAGGGUGGACACUGUCAUUCACGGAGGACAUGAGGAUCACCCAUGUC [SameState NG1 #79] (Eterna round: R96, puzzle: Same State NG 1)"
  System: "MS2 coat protein"
  Observable: "apparent KD of MS2 coat protein"
  Value Measured: 74.9
- Sequence Entry: "GUAGCAUACCGAGGAUAUUCAUAUAAUAAAUACAUGAGGAUCACCCAUGUUAGGCGAAAGCCUUGGGAGAAGGCGGAAUGCUAC [Xeonanis - 20 Mod58] (Eterna round: R96, puzzle: Same State NG 2)"
  System: "MS2 coat protein"
  Observable: "apparent KD of MS2 coat protein"
  Value Measured: 44.8
